# EXPERIMENTAL SYSTEM: Acetylcholinesterase (Rattus norvegicus)
# Construct: corpora striata dissected free, weighted and homogenized in 19 volumes; from tissue; host or cells: rat corpus striatum homogenate
# Sequence (P37136 32-614): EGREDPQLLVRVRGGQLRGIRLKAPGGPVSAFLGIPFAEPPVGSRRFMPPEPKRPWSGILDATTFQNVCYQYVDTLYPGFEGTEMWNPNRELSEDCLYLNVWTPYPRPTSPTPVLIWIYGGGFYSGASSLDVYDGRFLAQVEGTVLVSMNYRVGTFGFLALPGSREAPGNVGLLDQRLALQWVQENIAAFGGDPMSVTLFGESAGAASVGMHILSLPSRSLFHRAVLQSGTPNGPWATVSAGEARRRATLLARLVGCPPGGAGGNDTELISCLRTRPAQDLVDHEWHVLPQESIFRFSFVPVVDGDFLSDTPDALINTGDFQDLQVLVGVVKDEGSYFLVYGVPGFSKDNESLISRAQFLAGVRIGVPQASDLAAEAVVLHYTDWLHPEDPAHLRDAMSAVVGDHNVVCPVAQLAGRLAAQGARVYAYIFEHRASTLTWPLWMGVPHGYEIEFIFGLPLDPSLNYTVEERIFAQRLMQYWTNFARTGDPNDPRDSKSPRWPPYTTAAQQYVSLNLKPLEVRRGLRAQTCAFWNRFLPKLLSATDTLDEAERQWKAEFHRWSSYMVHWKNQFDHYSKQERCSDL
# EXPERIMENT NOTES: biochemical
# Design: species or system Male Wistar rats
# PROTOCOL CONDITIONS: read-out: Inhibition of Acetylcholinesterase Activity IC50
RESULT TYPE: pIC50
In plain terms, pIC50 is the concentration in mol/L turned into minus its base-10 logarithm.

stdin: Report measured pIC50; entry is COc1ccc(CN2CCC3(CCc4c3n(C)c3ccccc43)CC2)cc1
stdout: 4.19
